Source listed as patent US9512139B2.

# EXPERIMENT: in vitro
# Type: in vitro ADME, human
# MEASUREMENT_CONDITIONS: human, plasma, 4 h, 10 µM
MEASUREMENT_KIND: Plasma Stability 240 min hum [% remain.] (% remain.)

STRUCTURE_SMILES_STRING: CN1CC(=O)N2C[C@@H](NC(=O)Cc3cccc4ccccc34)C[C@H]2COc2ccc(F)cc2C(=O)N(C)[C@H](C(=O)NCCNC(=N)N)CCC1=O
VAL: 100
--
STRUCTURE_SMILES_STRING: CN1CCC[C@H](NC(=O)OCc2ccccc2)C(=O)N[C@@H]2C[C@@H](COc3ccc(F)cc3C1=O)N(C(=O)OC(C)(C)C)C2
VAL: 100
--
STRUCTURE_SMILES_STRING: CN1CC(=O)N2C[C@@H](NC(=O)CN3CCCC3)C[C@H]2COc2ccc(F)cc2C(=O)N(C)[C@@H](C(=O)N2CCCC2)CCC1=O
VAL: 100
